assay: chemical genetic growth profiling, strain panel (AID 1159580);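 further: tested at 20 µM; growth read once vehicle control cultures reached saturation at 30 °C; 1 = growth at the plate median or of vehicle wells; lower values mean less growth of the strain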; conditions: S. cerevisiae deletion strains, growth OD, locus YDR502C, strain sam2, hits give low values
Screen size: about 5,500 compounds; about 2,000 (36%) were called active. Inconclusive results (about 18%) are left out. This is one part of the list.

compound | normalized growth
O=NN(CCCl)C(=O)NCCCl | 0.881
CCN1C[C@@]2(COC)C3[C@@H](OC)[C@H]4[C@@H]1[C@]3(C(OC)C[C@H]2O)C1C[C@@]2(O)[C@H](OC(=O)c3ccccc3)C1[C@]4(OC(C)=O)[C@@H](O)[C@@H]2OC (some centres not stated) | 1.03
O=C(O)COc1ccc(Cl)cc1Cl | 1.02
CC(C)(S)[C@@H](N)C(=O)O | 0.996
O=c1oc2ccccc2cc1O | 0.986
N[C@@H](C(=O)O)[C@@H](O)[C@H](O)[C@H](O)CO | 1.01
CCCCCCCCCCCC(=O)OCC(COP(=O)(O)OCC(O)COP(=O)(O)OCC(COC(=O)CCCCCCCCCCC)OC(=O)CCCCCCCCCCC)OC(=O)CCCCCCCCCCC (configuration not stated) | 0.978
CN=C(N)NCCCC(N)C(=O)O (configuration not stated) | 1.01
CC(=O)O[C@H]1CC[C@@]2(C)C(C[C@@H](OC(C)=O)[C@]3(C)C2CC[C@@]2(C)[C@H](c4ccoc4)OC(=O)[C@H]4O[C@]423)C1(C)C (some centres not stated) | 1.03
CCCCCCCCCCCCCC(=O)OC1C(C)C2(O)C(C=C(CO)CC3(O)C(=O)C(C)=CC32)C2C(C)(C)C12OC(C)=O (configuration not stated) | 1
CC(=O)O[C@H]1C[C@@H](OC(C)=O)C(C)(C)C2C[C@@H](O)[C@]3(C)C(CC[C@@]4(C)[C@H](c5ccoc5)OC(=O)[C@H]5O[C@]543)[C@]21C (some centres not stated) | 0.996
CC(C)/C(O)=C1/C(=O)O[C@@H](c2ccoc2)[C@]2(C)C(O)[C@@H](O)[C@@]34OC5(C)OC67CC(C)(C(O)[C@]6(O)[C@@H](O)[C@]3(O5)C12)[C@H](CC(=O)O)[C@]74C (some centres not stated) | 1.01
Cc1oncc1C(=O)Nc1ccc(C(F)(F)F)cc1 | 0.996
NC(C(=O)O)C(O)C(=O)O (configuration not stated) | 1.03
COc1ccc(CCC(=O)c2c(O)cc(O[C@@H]3O[C@H](CO)C(O)[C@H](O)C3O[C@@H]3O[C@@H](C)[C@H](O)[C@@H](O)[C@H]3O)cc2O)cc1O (some centres not stated) | 1
CC1CCC(NC(=O)N(CCCl)N=O)CC1 (configuration not stated) | 0.859
CC(=O)O[C@H]1C[C@@H](OC(C)=O)C(C)(C)C2C[C@@H](OC(C)=O)[C@]3(C)C(CC[C@@]4(C)[C@H](c5ccoc5)OC(=O)[C@H]5O[C@]543)[C@]21C (some centres not stated) | 0.998

---

assay: chemical genetic growth profiling, strain panel (AID 1159580);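 further: tested at 20 µM; growth read once vehicle control cultures reached saturation at 30 °C; 1 = growth at the plate median or of vehicle wells; lower values mean less growth of the strain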; conditions: S. cerevisiae deletion strains, growth OD, locus YML016C, strain PPZ1, hits give low values
Out of some 5,500 compounds screened, about 2,000 (36%) were called active. Roughly 18% stayed inconclusive and do not appear here. This is one part of the list.

compound | normalized growth
COc1cc(C)c2c(=O)cc(-c3ccccc3)oc2c1 | 0.972
CC(=O)O[C@H]1C[C@@H](OC(C)=O)C(C)(C)C2C[C@@H](OC(C)=O)[C@]3(C)C(CC[C@@]4(C)[C@H](c5ccoc5)OC(=O)[C@H]5O[C@]543)[C@]21C (some centres not stated) | 1.01
CC(=O)O[C@@H]1CC2C(C)(C)[C@H](O)CC[C@]2(C)C2CC[C@@]3(C)[C@H](c4ccoc4)OC(=O)[C@H]4O[C@]43[C@@]21C (some centres not stated) | 1.01
COc1ccc(-c2cc(=O)c3c(OC)cc(OC)cc3o2)cc1 | 1
CC(=O)O[C@@H]1CC2C(C)(C)C(=O)C3OC3[C@]2(C)C2CC[C@@]3(C)[C@H](c4ccoc4)OC(=O)C4OC43[C@@]21C (some centres not stated) | 1.01
CC(=O)O[C@H]1CC[C@@]2(C)C(C[C@@H](OC(C)=O)[C@]3(C)C2CC[C@@]2(C)[C@H](c4ccoc4)OC(=O)[C@H]4O[C@]423)C1(C)C (some centres not stated) | 1.02
CC(=O)O[C@@H]1CC2C(C)(C)[C@H](O)CC[C@]2(C)C2CC[C@@]3(C)[C@H](c4ccoc4)OC(=O)C4OC43[C@@]21C (some centres not stated) | 0.982

---

experiment: chemical genetic growth profiling, strain panel (AID 1159580);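 further: tested at 20 µM; growth read once vehicle control cultures reached saturation at 30 °C; 1 = growth at the plate median or of vehicle wells; lower values mean less growth of the strain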; details: S. cerevisiae deletion strains, growth OD, locus YML032C, strain rad52, hits give low values
The campaign covered roughly 5,500 compounds. About 2,000 (36%) were called active. Another 18% or so got no clear call; they are omitted. The list shows a part of the results.
Recorded normalized growth by entry
measure: normalized growth

compound | assay.value
CC1(C)C(=O)[C@@H]2O[C@@H]2[C@@]2(C)C1C[C@@H](O)[C@]1(C)C2CC[C@@]2(C)[C@H](c3ccoc3)OC(=O)C3OC321 (stereo partly drawn) | 0.994
O=NN(CCCl)C(=O)NCCCl | 0.915
COC[C@]12CN(C=O)C3[C@@H]4[C@H](OC)C1[C@]3(C1CC3(O)C(OC)C(O)C4(OC(C)=O)C1C3OC(=O)c1ccccc1)[C@@H](OC)C[C@H]2O (stereo partly drawn) | 0.995
CC(=O)O[C@@H]1CC2C(C)(C)C(=O)C3OC3[C@]2(C)C2CC[C@@]3(C)[C@H](c4ccoc4)OC(=O)C4OC43[C@@]21C (stereo partly drawn) | 1.01
Cc1nnc(NS(=O)(=O)c2ccc(N)cc2)s1 | 1.01
CCC(=O)OC1[C@@H]2CC3=C4CC(=O)O[C@@H](c5ccoc5)[C@]4(C)CCC3[C@@](C)(C2=O)[C@@H](CC(=O)OC)C1(C)C (stereo partly drawn) | 1.02
CN(C)C(=O)Oc1ccc[n+](C)c1 | 1.01
CC(=O)O[C@@H]1CC2C(C)(C)[C@@H](O)CC[C@]2(C)C2CC[C@@]3(C)[C@H](c4ccoc4)OC(=O)[C@H]4O[C@]43[C@@]21C (stereo partly drawn) | 0.997

---

Recorded normalized growth by entry
experiment: chemical genetic growth profiling, strain panel (AID 1159580);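 further: tested at 20 µM; growth read once vehicle control cultures reached saturation at 30 °C; 1 = growth at the plate median or of vehicle wells; lower values mean less growth of the strain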; settings: S. cerevisiae deletion strains, growth OD, locus YJL092W, strain hpr5, hits give low values
Hit rate of the full screen: of about 5,500 compounds, about 2,000 (36%) were called active. Not shown: some 18% with an inconclusive outcome. The list shows a part of the results.

compound | normalized growth
Fc1ccc([C@@H]2CCNC[C@H]2COc2ccc3c(c2)OCO3)cc1 | 0.998
C[C@]12C=CC(=O)C=C1CCC1C2[C@@H](O)C[C@@]2(C)C1CC[C@]2(O)C(=O)CO (some centres undefined) | 0.995
Cc1cccc(C)c1NC(=O)C1CCCCN1C (centres undefined) | 0.986
CCCCCCCCCCCCCC(=O)OC1C(C)C2(O)C(C=C(CO)CC3(O)C(=O)C(C)=CC32)C2C(C)(C)C12OC(C)=O (centres undefined) | 0.984
CC(=O)C1CC[C@H]2C3CC[C@H]4C[C@H](O)CC[C@]4(C)C3CC[C@]12C (some centres undefined) | 1
C[C@]12CCC3c4ccc(O)cc4CCC3C1CCC2=O (some centres undefined) | 1.02
CC1[C@H](C)OC(=O)CC(O)CC(O)CC(O)CCC(O)C(O)C[C@]2(O)CC(O)C(C(=O)O)C(CC(OC3O[C@H](C)[C@@H](O)[C@H](N)[C@@H]3O)/C=C/C=C/C=C/C=C/CC/C=C/C=C/[C@H](C)[C@H]1O)O2 (some centres undefined) | 0.402
Cc1nnc(NS(=O)(=O)c2ccc(N)cc2)s1 | 1
CC(C)c1nc(N(C)S(C)(=O)=O)nc(-c2ccc(F)cc2)c1/C=C/[C@@H](O)C[C@@H](O)CC(=O)O | 1.03
O=C(O)CCCCCCCC(=O)O | 1.03
NC1(C(=O)O)CC1 | 1.02
NC(N)=NCCN1CCCCCCC1 | 1.03
CN(C)CCC(c1ccccc1)c1ccccn1 (centres undefined) | 1.01
NC(=O)CS(=O)C(c1ccccc1)c1ccccc1 (centres undefined) | 1
CC(=O)Oc1c2c(c(CC=C(C)C)c3c1C(=O)C1=C[C@@H]4CC5C(C)(C)OC(C/C=C(\C)C(=O)O)(C4=O)[C@@]15O3)OC(C)(CCC=C(C)C)C=C2 (some centres undefined) | 0.975
NC(N)=NCCCCN=C(N)N | 0.999
COc1ccc2c(c1)OCC(Cc1ccc(OC)c(O)c1)C2=O (centres undefined) | 0.968
COc1ccc2c(c1)OCC(Cc1ccc(OC)c(OC(C)=O)c1)C2=O (centres undefined) | 0.98
CC1OC(O[C@H]2/C=C/C=C/C=C/C=C/C=C/C=C/C=C/[C@H](C)[C@@H](O)[C@@H](C)[C@H](C)OC(=O)CC(O)CC(O)CCC(O)C(O)CC(O)C[C@]3(O)C[C@H](O)C(C(=O)O)C(C2)O3)C(O)[C@H](N)C1O (some centres undefined) | 0.0636
CCC(=O)OC1[C@@H]2CC3=C4CC(=O)O[C@@H](c5ccoc5)[C@]4(C)CCC3[C@@](C)(C2=O)[C@@H](CC(=O)OC)C1(C)C (some centres undefined) | 0.995
Clc1ccc(C(c2ccccc2Cl)C(Cl)Cl)cc1 (centres undefined) | 0.961
C[C@@H]1CC2C3CCC4=CC(=O)C=C[C@]4(C)[C@@]3(F)[C@@H](O)C[C@]2(C)[C@@]1(O)C(=O)CO (some centres undefined) | 0.964
CC12CCC3C(=CCc4cc(O)ccc43)C1CCC2=O (centres undefined) | 0.993
O=C1CCCN1CC#CCN1CCCC1 | 1.01
O=NN(CCCl)C(=O)NCCCl | 0.922
NCCCCCC(=O)O | 1.03
CC(=O)C1CCC2C3CCC4C[C@H](O)CCC4(C)C3C[C@H](O)C12C (some centres undefined) | 0.964
CC(=O)Oc1ccc2c(c1)CCC1C2CC[C@]2(C)C(=O)CCC12 (some centres undefined) | 0.981
CC(=O)OCC(=O)[C@@]1(O)CCC2C3CCC4=CC(=O)C=CC4(C)C3[C@@H](O)C[C@@]21C (some centres undefined) | 0.995
O=C(O)C1CCCNC1 (centres undefined) | 1.02
CN1CCC[C@@H]1CCO[C@](C)(c1ccccc1)c1ccc(Cl)cc1 | 0.982
C[C@H]1C[C@@H](O)[C@]2(O)[C@@]13CC(=O)OC[C@@]2(C)[C@](C)(O)C(=O)C3 | 1.03
C[C@]12CCC3c4ccc(OC(=O)c5ccccc5)cc4CCC3C1CCC2=O (some centres undefined) | 0.98
CC(=O)O[C@]1(C)CC[C@@]23CC1C(C)(C)[C@@H]2CC[C@H]3C | 0.983
NC(C(=O)O)C(O)C(=O)O (centres undefined) | 0.986
CC(C)/C(O)=C1/C(=O)O[C@@H](c2ccoc2)[C@]2(C)C(O)[C@@H](O)[C@@]34OC5(C)OC67CC(C)(C(O)[C@]6(O)[C@@H](O)[C@]3(O5)C12)[C@H](CC(=O)O)[C@]74C (some centres undefined) | 0.989
COC(=O)/C(C)=C\CC12OC(C)(C)C3CC(C=C4C(=O)c5c(OC)c6c(c(CC=C(C)C)c5OC431)OC(C)(CCC=C(C)C)C=C6)C2=O (centres undefined) | 1.02
CCC(C)C(=O)c1c(O)c(C)c2oc3c(C)c(O)c(C(=O)C(C)CC)c(O)c3c2c1O (centres undefined) | 1
C[C@@H]1CC[C@H]2C(C)(C)C3CC12CC[C@@]3(C)O (some centres undefined) | 0.968
